# target: Phospholipase D1 (Homo sapiens, UniProt Q13393)
# Sequence (Q13393 whole entry): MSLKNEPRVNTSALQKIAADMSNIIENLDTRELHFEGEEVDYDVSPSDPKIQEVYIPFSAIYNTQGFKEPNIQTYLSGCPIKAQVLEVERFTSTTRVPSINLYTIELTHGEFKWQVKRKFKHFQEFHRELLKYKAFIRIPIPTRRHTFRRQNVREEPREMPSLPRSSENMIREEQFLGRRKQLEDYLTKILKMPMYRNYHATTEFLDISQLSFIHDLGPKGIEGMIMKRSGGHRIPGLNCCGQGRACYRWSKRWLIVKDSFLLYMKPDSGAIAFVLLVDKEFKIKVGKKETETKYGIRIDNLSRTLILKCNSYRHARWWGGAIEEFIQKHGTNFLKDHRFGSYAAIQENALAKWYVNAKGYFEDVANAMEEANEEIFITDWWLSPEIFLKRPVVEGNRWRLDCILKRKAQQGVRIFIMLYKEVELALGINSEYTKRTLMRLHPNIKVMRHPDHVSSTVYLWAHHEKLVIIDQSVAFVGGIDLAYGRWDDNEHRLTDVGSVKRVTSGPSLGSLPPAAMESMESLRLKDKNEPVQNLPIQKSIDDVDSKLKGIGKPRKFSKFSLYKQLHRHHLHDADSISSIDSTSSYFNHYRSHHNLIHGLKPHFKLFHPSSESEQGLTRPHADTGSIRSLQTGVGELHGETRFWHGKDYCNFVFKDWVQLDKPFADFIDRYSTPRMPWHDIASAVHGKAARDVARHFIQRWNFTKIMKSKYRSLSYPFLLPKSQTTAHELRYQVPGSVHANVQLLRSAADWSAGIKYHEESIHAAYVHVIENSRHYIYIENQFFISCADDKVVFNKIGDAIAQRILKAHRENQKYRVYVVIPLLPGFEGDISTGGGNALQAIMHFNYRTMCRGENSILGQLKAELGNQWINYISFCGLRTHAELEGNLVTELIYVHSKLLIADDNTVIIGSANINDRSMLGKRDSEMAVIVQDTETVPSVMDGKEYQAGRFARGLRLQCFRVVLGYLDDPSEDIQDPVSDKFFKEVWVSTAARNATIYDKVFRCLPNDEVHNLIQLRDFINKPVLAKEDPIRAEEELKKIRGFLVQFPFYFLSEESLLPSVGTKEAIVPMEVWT
# experimentNotes: Inhibition of PLD1 in human Calu-1 cells assessed as deuterated 1-butanol incorporation pretreated for 5 mins prior to substrate addition measured after 30 mins by mass spectrometry
Rule for this label: rule met means IC50 is less than 800 nM; rule not met means IC50 is at least 800 nM.

Example cases with answers are listed next.
chemicalString	classAssignment
C[C@H](CN1CCC2(CC1)C(=O)NCN2c1cccc(F)c1)NC(=O)c1ccc(F)c(F)c1	rule not met
C[C@H](CN1CCC2(CC1)C(=O)NCN2c1cccc(F)c1)NC(=O)c1ccc(F)cc1	rule met
C[C@@H](CN1CCC2(CC1)C(=O)NCN2c1cccc(F)c1)NC(=O)c1ccc(F)c(F)c1	rule met
O=C(NCCN1CCC2(CC1)C(=O)NCN2c1cccc(F)c1)c1ccc(Br)cc1	rule not met

In the following, a different compound is considered.
**Q:** Lab note: IC50 threshold 800 nM. Does this compound come in strictly under it? "C[C@@H](CN1CCC2(CC1)C(=O)NCN2c1cccc(F)c1)NC(=O)c1ccc(F)cc1"
**A:** rule met
